biological target: wt MPER peptide (HIV-1)
Endpoint: Kd (nM)
Note: unit nM is implicit; provide only the numeric part.

2F5 variant r4WY (antibody, V domains shown) VH: RITLKESGPPLVKPTQTLTLTCSFSGFSLSDFGVGVGWIRQPPGKALEWLAIIYSDDDKRYSPSLNTRLTITKDTSKNQVVLVMTRVSPVDTATYFCAHRRGPLFGWYRGPVNAMDVWGQGITVTISS VL: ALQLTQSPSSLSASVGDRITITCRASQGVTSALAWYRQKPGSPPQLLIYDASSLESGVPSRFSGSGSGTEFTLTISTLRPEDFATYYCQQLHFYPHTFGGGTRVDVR
2.77

Continue with the next binder.
Exam item: Which Kd reading was recorded for the binder 2F5 variant e4W (antibody, V domains shown) VH: RITLKESGPPLVKPTQTLTLTCSFSGFSLSDFGVGVGWIRQPPGKALEWLAIIYSDDDKRYSPSLNTRLTITKDTSKNQVVLVMTRVSPVDTATYFCAHRRGPTTGGLFGWGGPIARGPVNAMDVWGQGITVTISS VL: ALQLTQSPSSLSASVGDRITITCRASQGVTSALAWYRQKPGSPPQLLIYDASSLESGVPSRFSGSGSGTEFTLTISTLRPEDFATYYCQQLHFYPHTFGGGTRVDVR ?
Marked response: 145

Values were extracted from paper PMC3400562.
